target: protein-protein interaction between Kras and SOS1 (biotin-tagged human Kras loaded with GDP, His-tagged human SOS1) (Homo sapiens (Human), UniProt P01116, G12D); experiment: Protein-protein interaction inhibition between Kras and SOS1 (KrasG12D-SOS PPI) using AlphaScreen; assay type: biochemical; conditions: AlphaScreen; biotin-tagged human Kras loaded with GDP, His-tagged human SOS1; read-out: KRAS G12D-SOS PPI IC50
pIC50: −log10 of the molar value. Numbered stars: 1 amine (or outer) side, 2 acyl side, 3 side chain; on linkers, the order of the positions; unused ones are H or OH. Bridge positions count the residues as written; N and C are the ends. Square brackets hold non-standard residues; d marks the D form. Peptide text beside a SMILES is read from it. * marks the point of attachment. hPhe(3-Cl-4-CF3) = N[C@@H](CCc1ccc(C(F)(F)F)c(Cl)c1)C(=O)O; NMePhe(4-Me) = CN[C@@H](Cc1ccc(C)cc1)C(=O)O; NMePhe(4-F) = CN[C@@H](Cc1ccc(F)cc1)C(=O)O; X133 = O=C(C[C@H](N[*:1])C(F)(F)F)[*:2]; NMeGly(cPent) = CN[C@H](C(=O)O)C1CCCC1; NMeCha = CN[C@@H](CC1CCCCC1)C(=O)O; NMeChg = CN[C@H](C(=O)O)C1CCCCC1; NMeI = CC[C@H](C)[C@H](NC)C(=O)O; NMeD = CN[C@@H](CC(=O)O)C(=O)O; NMeL = CN[C@@H](CC(C)C)C(=O)O; NMeV = CN[C@H](C(=O)O)C(C)C; Trifluoroethyl = FC(F)(F)C*; d(β3hA) = C[C@@H](N)CC(=O)O; NMeS = CN[C@@H](CO)C(=O)O; NMeA = CN[C@@H](C)C(=O)O; Piperidide = C1CCN(*)CC1; Ac5c = NC1(C(=O)O)CCCC1; Aze = O=C(O)[C@@H]1CCN1; Sar = CNCC(=O)O
Param threshold (9) applies to pIC50; output condition met when value >= threshold, condition not met when value < threshold.

1) CC[C@H](C)[C@@H]1NC(=O)[C@H](COCC(F)(F)F)N(C)C(=O)C[C@@H](C(=O)N2CCCCC2)N(C)C(=O)[C@H](C(C)C)N(C)C(=O)C2(CCCC2)NC(=O)[C@@H]2CCCN2C(=O)[C@H](CCc2ccc(C(F)(F)F)c(Cl)c2)NC(=O)CN(C)C(=O)[C@H](CC2CCCCC2)N(C)C(=O)[C@@H]2CCN2C(=O)[C@H](C)N(C)C1=O [Compound 387] ([NMeS](Trifluoroethyl)I[NMeA][Aze][NMeCha][Sar][hPhe(3-Cl-4-CF3)]P[Ac5c][NMeV][NMeD]-Piperidide; lactam N-11) : condition not met
2) CC[C@H](C)[C@@H]1NC(=O)[C@H](CC(C)C)N(C)C(=O)C[C@@H](C(=O)N(C)C)N(C)C(=O)[C@H]([C@@H](C)CC)N(C)C(=O)CNC(=O)[C@@H]2CCCN2C(=O)[C@H](CCc2ccc(C(F)(F)F)c(Cl)c2)NC(=O)CN(C)C(=O)[C@H](Cc2ccc(C)cc2)N(C)C(=O)[C@@H]2CCN2C(=O)[C@H](C)N(C)C1=O [Compound 828] ([NMeL]I[NMeA][Aze][NMePhe(4-Me)][Sar][hPhe(3-Cl-4-CF3)]PG[NMeI][NMeD]-NMe2; lactam N-11) : condition not met
3) CC[C@H](C)[C@@H]1NC(=O)[C@H](CC(C)C)N(C)C(=O)C[C@@H](C(F)(F)F)NC(=O)[C@H]([C@@H](C)CC)N(C)C(=O)C2(CCCC2)NC(=O)[C@@H]2CCCN2C(=O)[C@H](CCc2ccc(C(F)(F)F)c(Cl)c2)NC(=O)CN(C)C(=O)[C@H](Cc2ccc(C)cc2)N(C)C(=O)[C@@H]2CCN2C(=O)[C@H](C)N(C)C1=O [Compound 1919] (cyclo([Ac5c][NMeI][X133][NMeL]I[NMeA][Aze][NMePhe(4-Me)][Sar][hPhe(3-Cl-4-CF3)]P)) : condition not met
4) CC[C@H](C)[C@@H]1NC(=O)[C@H](CC(C)C)N(C)C(=O)C[C@@H](C)NC(=O)[C@H](C2CCCCC2)N(C)C(=O)C2(CCCC2)NC(=O)[C@@H]2CCCN2C(=O)[C@H](CCc2ccc(C(F)(F)F)c(Cl)c2)NC(=O)CN(C)C(=O)[C@H](CC2CCCCC2)N(C)C(=O)[C@@H]2CCN2C(=O)[C@H](C)N(C)C1=O [Compound 1706] (cyclo([Ac5c][NMeChg][d(β3hA)][NMeL]I[NMeA][Aze][NMeCha][Sar][hPhe(3-Cl-4-CF3)]P)) : condition not met

Here is another compound to look at.
Prompt: Kindly determine if pIC50 recorded for CC[C@H](C)[C@@H]1NC(=O)[C@H](CC(C)C)N(C)C(=O)C[C@@H](C(=O)N2CCCCC2)N(C)C(=O)[C@H](C2CCCC2)N(C)C(=O)C2(CCCC2)NC(=O)[C@@H]2CCCN2C(=O)[C@H](CCc2ccc(C(F)(F)F)c(Cl)c2)NC(=O)CN(C)C(=O)[C@H](Cc2ccc(F)cc2)N(C)C(=O)[C@@H]2CCN2C(=O)[C@H](C)N(C)C1=O [Compound 388] ([NMeL]I[NMeA][Aze][NMePhe(4-F)][Sar][hPhe(3-Cl-4-CF3)]P[Ac5c][NMeGly(cPent)][NMeD]-Piperidide; lactam N-11) is above or exactly 9.
Completion: condition met

###

biological target: protein-protein interaction between Kras and SOS1 (biotin-tagged human Kras loaded with GDP, His-tagged human SOS1) (Homo sapiens (Human), UniProt P01116, G12D); test: Protein-protein interaction inhibition between Kras and SOS1 (KrasG12D-SOS PPI) using AlphaScreen; type: biochemical; conditions: AlphaScreen; biotin-tagged human Kras loaded with GDP, His-tagged human SOS1; read-out: KRAS G12D-SOS PPI IC50
Bridge positions count the residues as written; N and C are the ends. Square brackets hold non-standard residues; d marks the D form. Peptide text beside a SMILES is read from it. * marks the point of attachment. hPhe(3-Cl-4-CF3) = N[C@@H](CCc1ccc(C(F)(F)F)c(Cl)c1)C(=O)O; NMeGly(cPent) = CN[C@H](C(=O)O)C1CCCC1; NMeCha = CN[C@@H](CC1CCCCC1)C(=O)O; NMeD = CN[C@@H](CC(=O)O)C(=O)O; NMeL = CN[C@@H](CC(C)C)C(=O)O; Azetidin(1-yl) = C1CN(*)C1; NMeA = CN[C@@H](C)C(=O)O; Ac5c = NC1(C(=O)O)CCCC1; Aze = O=C(O)[C@@H]1CCN1; NEtG = CCNCC(=O)O; Sar = CNCC(=O)O
Entries and their measured pIC50 follow.
The scale used: pIC50 is minus the common logarithm of the concentration in molar units.

1. CC[C@H](C)[C@@H]1NC(=O)[C@H](CC(C)C)N(C)C(=O)C[C@@H](C(=O)N(C)C)N(C)C(=O)[C@H](C2CCCC2)N(C)C(=O)[C@H](C(C)C)NC(=O)[C@@H]2CCCN2C(=O)[C@H](CCc2ccc(C(F)(F)F)c(Cl)c2)NC(=O)CN(C)C(=O)[C@H](CC2CCCCC2)N(C)C(=O)[C@@H]2CCN2C(=O)[C@H](C)N(C)C1=O [Compound 1010] ([NMeL]I[NMeA][Aze][NMeCha][Sar][hPhe(3-Cl-4-CF3)]PV[NMeGly(cPent)][NMeD]-NMe2; lactam N-11) : 8.37

Moving on to another compound below.
Given item CC[C@H](C)[C@@H]1NC(=O)[C@H](CC(C)C)N(C)C(=O)C[C@@H](C(=O)N2CCC2)N(C)C(=O)[C@H](C2CCCC2)N(C)C(=O)C2(CCCC2)NC(=O)[C@@H]2CCCN2C(=O)[C@H](CCc2ccc(C(F)(F)F)c(Cl)c2)NC(=O)CN(CC)C(=O)[C@H](CC2CCCCC2)N(C)C(=O)[C@@H]2CCN2C(=O)[C@H](C)N(C)C1=O [Compound 726] ([NMeL]I[NMeA][Aze][NMeCha][NEtG][hPhe(3-Cl-4-CF3)]P[Ac5c][NMeGly(cPent)][NMeD]-{Azetidin(1-yl)}; lactam N-11) , the value recorded as its pIC50 is 8.89

###

Entries and their measured IC50 follow.
target: protein-protein interaction between Kras and SOS1 (biotin-tagged human Kras loaded with GDP, His-tagged human SOS1) (Homo sapiens (Human), UniProt P01116, G12D); test: Protein-protein interaction inhibition between Kras and SOS1 (KrasG12D-SOS PPI) using AlphaScreen; type: biochemical; conditions: AlphaScreen; biotin-tagged human Kras loaded with GDP, His-tagged human SOS1; read-out: KRAS G12D-SOS PPI IC50;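 further: kras produced in E. coli, Ni-coupled donor beads and streptavidin acceptor beads, excitation 680 nm with emission detected at 520–620 nm via singlet oxygen transfer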
Bridge positions count the residues as written; N and C are the ends. Square brackets hold non-standard residues; d marks the D form. Peptide text beside a SMILES is read from it. * marks the point of attachment. hPhe(3,5-F2-4-CF3) = N[C@@H](CCc1cc(F)c(C(F)(F)F)c(F)c1)C(=O)O; hPhe(3-Cl-4-CF3) = N[C@@H](CCc1ccc(C(F)(F)F)c(Cl)c1)C(=O)O; hPhe(3-F,4-CF3) = N[C@@H](CCc1ccc(C(F)(F)F)c(F)c1)C(=O)O; hPhe(4-CF3) = N[C@@H](CCc1ccc(C(F)(F)F)cc1)C(=O)O; NMePhe(4-Cl) = CN[C@@H](Cc1ccc(Cl)cc1)C(=O)O; NMeNle(6-CHF2) = CN[C@@H](CCCCC(F)F)C(=O)O; NMeAla(cPent) = CN[C@@H](CC1CCCC1)C(=O)O; NMeGly(cPent) = CN[C@H](C(=O)O)C1CCCC1; NMeCha = CN[C@@H](CC1CCCCC1)C(=O)O; Hyp = O=C(O)[C@@H]1C[C@@H](O)CN1; NMeChg = CN[C@H](C(=O)O)C1CCCCC1; NMeF = CN[C@@H](Cc1ccccc1)C(=O)O; dNMeF = CN[C@H](Cc1ccccc1)C(=O)O; NMeD = CN[C@@H](CC(=O)O)C(=O)O; NMeL = CN[C@@H](CC(C)C)C(=O)O; Chg = N[C@H](C(=O)O)C1CCCCC1; d(β3hA) = C[C@@H](N)CC(=O)O; Morpholide = C1CN(*)CCO1; NMeA = CN[C@@H](C)C(=O)O; Piperidide = C1CCN(*)CC1; Ac5c = NC1(C(=O)O)CCCC1; Aze = O=C(O)[C@@H]1CCN1; Aib = CC(C)(N)C(=O)O; Sar = CNCC(=O)O
API: value field is a number in nM; no unit string.

Consider the following illustrative entries.
1) CC[C@H](C)[C@@H]1NC(=O)[C@H](C)N(C)C(=O)C[C@@H](C)NC(=O)[C@H](CC(C)C)N(C)C(=O)[C@H](Cc2ccccc2)N(C)C(=O)[C@H](CC(C)C)N(C)C(=O)[C@H](CCc2ccc(C(F)(F)F)cc2)NC(=O)CN(C)C(=O)[C@H](Cc2ccc(Cl)cc2)N(C)C(=O)CN(C)C(=O)CN(C)C1=O [Compound 546] (cyclo(I[Sar][Sar][NMePhe(4-Cl)][Sar][hPhe(4-CF3)][NMeL][NMeF][NMeL][d(β3hA)][NMeA])) : 130
2) CC[C@H](C)[C@@H]1NC(=O)[C@H](CC2CCCC2)N(C)C(=O)C[C@@H](C(=O)N(C)C)N(C)C(=O)[C@H](C2CCCC2)N(C)C(=O)C2(CCCC2)NC(=O)[C@@H]2CCCN2C(=O)[C@H](CCc2ccc(C(F)(F)F)c(F)c2)NC(=O)CN(C)C(=O)[C@H](CC2CCCCC2)N(C)C(=O)[C@@H]2CCN2C(=O)[C@H](C)NC1=O [Compound 1340] ([NMeAla(cPent)]IA[Aze][NMeCha][Sar][hPhe(3-F,4-CF3)]P[Ac5c][NMeGly(cPent)][NMeD]-NMe2; lactam N-11) : 1.2
3) CC(C)C[C@H]1C(=O)N[C@@H](C2CCCCC2)C(=O)N(C)CC(=O)N(C)CC(=O)N(C)[C@@H](CCCCC(F)F)C(=O)N(C)CC(=O)N[C@@H](CCc2ccc(C(F)(F)F)c(F)c2)C(=O)N(C)[C@@H](CC(C)C)C(=O)NC(C)(C)C(=O)N(C)[C@@H](CC(C)C)C(=O)N[C@H](C)CC(=O)N1C [Compound 1460] (cyclo([Aib][NMeL][d(β3hA)][NMeL][Chg][Sar][Sar][NMeNle(6-CHF2)][Sar][hPhe(3-F,4-CF3)][NMeL])) : 130
4) CC[C@H](C)[C@@H]1NC(=O)[C@H](CC(C)C)N(C)C(=O)C[C@@H](C(=O)N2CCCCC2)N(C)C(=O)[C@H](C2CCCC2)N(C)C(=O)C2(CCCC2)NC(=O)[C@@H](Cc2ccccc2)N(C)C(=O)[C@H](CCc2ccc(C(F)(F)F)c(Cl)c2)NC(=O)CN(C)C(=O)[C@H](CC2CCCCC2)N(C)C(=O)CN(C)C(=O)CN(C)C1=O [Compound 1446] ([NMeL]I[Sar][Sar][NMeCha][Sar][hPhe(3-Cl-4-CF3)][dNMeF][Ac5c][NMeGly(cPent)][NMeD]-Piperidide; lactam N-11) : 150

Moving on to another compound below.
Given item CCO[C@@H]1C[C@H]2C(=O)NC3(CCCC3)C(=O)N(C)[C@@H](C3CCCCC3)C(=O)N(C)[C@H](C(=O)N3CCOCC3)CC(=O)N(C)[C@@H](CC(C)C)C(=O)N[C@@H]([C@@H](C)CC)C(=O)N(C)CC(=O)N(C)CC(=O)N(C)[C@@H](CC3CCCCC3)C(=O)N(C)CC(=O)N[C@@H](CCc3cc(F)c(C(F)(F)F)c(F)c3)C(=O)N2C1 [Compound 1290] ([NMeL]I[Sar][Sar][NMeCha][Sar][hPhe(3,5-F2-4-CF3)][Hyp](Et)[Ac5c][NMeChg][NMeD]-Morpholide; lactam N-11) , the value recorded as its IC50 is 0.63

Origin of the recorded values: patent US20240148821A1
